Origin of values: patent US6355799B1

- System: redroot pigweed (Amaranthus retroflexus, AMARE)
- assay remarks: Pre-emerge test, greenhouse herbicide activity screening
- Format: in vivo
- condition info: 250 g ai/ha; rating scale 0-100, 14 days after application
Catalogue of molecules with associated Pre-emerge herbicidal activity, phytotoxicity rating AMARE
Provide a numeric answer; units are not to be included.

Guide cases for Pre-emerge herbicidal activity, phytotoxicity rating AMARE, answers given:
[
  {
    "molecule": "COc1c(Cl)cc(F)c(-n2c(=O)cc(C(F)(F)F)n(C)c2=O)c1CC(C)(Cl)C(=O)OC(C)C (stereo not shown)",
    "numeric result": 100
  },
  {
    "molecule": "COCCOC(=O)C(C)(Cl)Cc1c(OC)c(Cl)cc(F)c1-n1c(=O)cc(C(F)(F)F)n(C)c1=O (stereo not shown)",
    "numeric result": 100
  }
]

Ask: Notebook: pull reported Pre-emerge herbicidal activity, phytotoxicity rating AMARE for redroot pigweed (Amaranthus retroflexus, AMARE), entry CCOC(=O)C(C)(Cl)Cc1c(OC)c(Cl)cc(F)c1-n1c(=O)cc(C(F)(F)F)n(C)c1=O (stereo not shown)
Result: 100

Ask: Now consider CCCCCCOC(=O)C(Cl)Cc1c(OC)c(Cl)cc(F)c1-n1c(=O)cc(C(F)(F)F)n(C)c1=O (single isomer, unassigned) .
Result: 100

Ask: Now consider COc1c(Cl)cc(F)c(-n2c(=O)cc(C(F)(F)F)n(C)c2=O)c1CC(Cl)C(=O)OC(C)(C)C (stereo not shown) .
Result: 100

Ask: Now consider COc1c(Cl)cc(F)c(-n2c(=O)cc(C(F)(F)F)n(C)c2=O)c1CC(Cl)C(=O)OCCC#N (stereo not shown) .
Result: 95

Ask: Now consider CCCOC(=O)C(Cl)Cc1c(OC)c(Cl)cc(F)c1-n1c(=O)cc(C(F)(F)F)n(C)c1=O (single isomer, unassigned) .
Result: 100

Ask: Now consider COc1c(Cl)cc(F)c(-n2c(=O)cc(C(F)(F)F)n(C)c2=O)c1CC(C)(Cl)C(=O)OCc1ccccc1 (stereo not shown) .
Result: 100

Ask: Now consider CCOCCOC(=O)C(Cl)Cc1c(OC)c(Cl)cc(F)c1-n1c(=O)cc(C(F)(F)F)n(C)c1=O (stereo not shown) .
Result: 100

====

- System: sicklepod (Cassia obtusifolia, CASOB)
- assay remarks: Pre-emerge test, greenhouse herbicide activity screening
- Assay type: in vivo
- condition info: Senna obtusifolia, pre-emergence, 336 h; pre-emerge, rate 250 g ai/ha, phytotoxicity rating 0-100 at 14 days after application; read-out: Pre-emerge Herbicidal Activity CASOB
assay endpoint: pest or weed control at 250 g/ha (%)
Write down the numeric answer in % and omit the unit.

[
  {
    "smiles representation": "Cc1nn(-c2c(Cl)cc(Cl)cc2NC(=O)c2ccc3ccccc3c2)c(=O)n1C(F)F",
    "target or system": "sicklepod (Cassia obtusifolia, CASOB)",
    "unit spec": "%",
    "pest or weed control at 250 g/ha": 0
  },
  {
    "smiles representation": "Cc1nn(-c2c(Cl)cc(Cl)c(N)c2N)c(=O)n1C(F)F",
    "target or system": "sicklepod (Cassia obtusifolia, CASOB)",
    "unit spec": "%",
    "pest or weed control at 250 g/ha": 0
  },
  {
    "smiles representation": "Cc1nn(-c2c(F)cc(Cl)cc2NC(=O)c2ccc3ccccc3c2)c(=O)n1C(F)F",
    "target or system": "sicklepod (Cassia obtusifolia, CASOB)",
    "unit spec": "%",
    "pest or weed control at 250 g/ha": 0
  }
]

Ask: Notebook: pull reported pest or weed control at 250 g/ha for sicklepod (Cassia obtusifolia, CASOB), entry `CC(C)Oc1c(Cl)cc(F)c(N2C(=O)C3=C(CCCC3)C2=O)c1N`
Result: 0

Ask: Now consider `CC(C)Oc1c(Cl)cc(F)c(-n2nnn(CCCF)c2=O)c1N` .
Result: 10

Ask: Now consider `COc1c(Cl)cc(F)c(-c2nn(C)c(C(F)(F)F)c2Cl)c1N` .
Result: 30

Ask: Now consider `COc1c(Cl)cc(F)c(-c2nn(C)c(C(F)(F)F)c2Cl)c1NC(=O)c1ccc2ccccc2c1` .
Result: 50

Ask: Now consider `Nc1c(O)c(Cl)cc(F)c1N1C(=O)C2=C(CCCC2)C1=O` .
Result: 90

====

- System: large crabgrass (Digitaria sanguinalis, DIGSA)
- assay remarks: Pre-emerge test, greenhouse herbicide activity screening
- Assay type: in vivo
- condition info: pre-emerge, 250 g ai/ha, 14 days after application, scale 0-100
- Protocol: A standard greenhouse herbicide activity screening system was used to evaluate the herbicidal efficacy and crop safety of these test compounds. […] At 14 days after application of the test materials, phytotoxicity ratings were recorded. […]
phytotoxicity rating DIGSA below 90 gives f; phytotoxicity rating DIGSA at or above it gives t.

Example results:
[
  {
    "molecule": "COc1ccc(-n2c(=O)cc(C(F)(F)F)n(C)c2=O)c(NC(=O)c2ccc3ccccc3c2)c1 [2-143]",
    "assigned class": "t"
  },
  {
    "molecule": "COc1c(Cl)cc(F)c(-n2c(=O)cc(C(F)(F)F)n(C)c2=O)c1NC(=O)CSC [2-168]",
    "assigned class": "f"
  },
  {
    "molecule": "COc1c(Cl)cc(F)c(-n2c(=O)cc(C(F)(F)F)n(C)c2=O)c1NC(=O)Cc1ccccc1 [2-151]",
    "assigned class": "f"
  },
  {
    "molecule": "COc1c(Cl)cc(F)c(-n2c(=O)cc(C(F)(F)F)n(C)c2=O)c1NC(=O)CSC(C)C [2-173]",
    "assigned class": "f"
  },
  {
    "molecule": "COc1c(Cl)cc(F)c(-n2c(=O)cc(C(F)(F)F)n(N)c2=O)c1NC(=O)C=Cc1ccccc1 [2-185]",
    "assigned class": "f"
  },
  {
    "molecule": "COc1c(Br)cc(F)c(-n2c(=O)cc(C(F)(F)F)n(C)c2=O)c1NC(=O)C=Cc1ccccc1 [2-177]",
    "assigned class": "f"
  },
  {
    "molecule": "COc1c(Cl)cc(F)c(-n2c(=O)cc(C(F)(F)F)n(C)c2=O)c1NC(=O)c1ccc2cccc(F)c2c1 [2-161]",
    "assigned class": "t"
  },
  {
    "molecule": "COc1c(Cl)cc(F)c(-n2c(=O)cc(C(F)(F)F)n(N)c2=O)c1NC(=O)c1ccc2ccccc2c1 [2-184]",
    "assigned class": "t"
  }
]

Ask: Does the molecule Cn1c(C(F)(F)F)cc(=O)n(-c2c(F)cc(Cl)cc2NC2CC2)c1=O [2-147] have recorded phytotoxicity rating DIGSA that is 90 or more?
Result: t

Ask: Now consider COc1c(Cl)cc(F)c(-n2c(=O)cc(C(F)(F)F)n(C)c2=O)c1NC(=O)c1ccc2c(Br)cccc2c1 [2-158] .
Result: t

====

Catalogue of compounds with associated Post-emerge Herbicidal Activity, phytotoxicity rating ECHCG
- Test system: barnyardgrass (Echinochloa crus-galli, ECHCG)
- assay remarks: Post-emerge test, greenhouse herbicide activity screening
- Type: in vivo
- condition info: Rate 63 g ai/ha; rating scale 0-100 (0 no damage, 100 complete death); 14 days after application
Provide a numeric answer; units are not to be included.

Guide cases for Post-emerge Herbicidal Activity, phytotoxicity rating ECHCG, answers given:
[
  {
    "compound": "CCCCOC(=O)C(C)(Cl)Cc1c(OC)c(Cl)cc(F)c1-n1c(=O)cc(C(F)(F)F)n(C)c1=O (stereo not drawn) [14-36]",
    "numeric result": 99
  },
  {
    "compound": "CCOCCOC(=O)C(Cl)Cc1c(OC)c(Cl)cc(F)c1-n1c(=O)cc(C(F)(F)F)n(C)c1=O (stereo not drawn) [14-26]",
    "numeric result": 100
  },
  {
    "compound": "CCCCOC(=O)C(Cl)Cc1c(OC)c(Cl)cc(F)c1-n1c(=O)cc(C(F)(F)F)n(C)c1=O (single isomer, unassigned) [14-9]",
    "numeric result": 98
  },
  {
    "compound": "COc1c(Cl)cc(F)c(-n2c(=O)cc(C(F)(F)F)n(C)c2=O)c1CC(Cl)C(=O)OCC(F)(F)C(F)(F)C(F)(F)F (single isomer, unassigned) [14-24]",
    "numeric result": 100
  },
  {
    "compound": "COc1c(Cl)cc(F)c(-n2c(=O)cc(C(F)(F)F)n(C)c2=O)c1CC(Cl)C(=O)OCCC(C)C (single isomer, unassigned) [14-16]",
    "numeric result": 95
  }
]

Now consider a different compound.
Ask: // returns reported Post-emerge Herbicidal Activity, phytotoxicity rating ECHCG for input CCOC(=O)C(Cl)Cc1c(C)c(Cl)cc(F)c1-n1c(=O)cc(C(F)(F)F)n(C)c1=O (stereo not drawn) [14-54]
Result: 30
